pIC50 for Isocitrate lyase (Candida albicans, UniProt Q9P8Q7), merged from several publications.
Keep in mind that pIC50 stands for -log10 of concentration in molar terms.

Examples with answers:
{"molecule": "Oc1cc(Oc2cc(O)c(O)c(Br)c2Br)c(Br)c(Br)c1O", "measured.parameter": "pIC50", "observed": 4.93}
{"molecule": "C/C(C=O)=C\\CC/C(C)=C/CC[C@]1(C)CCc2cc(O)cc(C)c2O1", "measured.parameter": "pIC50", "observed": 3.73}
{"molecule": "O=C(C(=O)c1c[nH]c2ccc(O)cc12)c1c[nH]c2ccc(O)cc12", "measured.parameter": "pIC50", "observed": 4.05}
{"molecule": "O=S(=O)([O-])O/C=C/c1ccc2c(c1)OC(C(O)c1ccc(O)c(O)c1)O2.[Na+] (stereo unspecified)", "measured.parameter": "pIC50", "observed": 3.51}
{"molecule": "O=S(=O)([O-])O/C=C/c1ccc(OC2Oc3cc(/C=C/OS(=O)(=O)[O-])ccc3OC2c2ccc(O)c(O)c2)c(O)c1.[Na+].[Na+] (stereo unspecified)", "measured.parameter": "pIC50", "observed": 4.19}

stdin: // lookup pIC50 | system=Isocitrate lyase (Candida albicans, UniProt Q9P8Q7) | key= Oc1cc(Br)c(CCc2cc(O)c(O)c(Br)c2Br)cc1O
stdout: 4.83

stdin: Isocitrate lyase (Candida albicans, UniProt Q9P8Q7) / pIC50 / O=C(c1cc(O)c(O)c(Br)c1)c1cc(O)c(O)c(Br)c1Br : value?
stdout: 5.58

stdin: Kindly state the measured pIC50 obtained for O=C(O)C1=NCCc2c1[nH]c1ccc(O)cc21 with Isocitrate lyase (Candida albicans, UniProt Q9P8Q7).
stdout: 3.42

stdin: // map C=CC(C)(CC/C=C(\C)C[C@@H]1C=C(C)C(=O)[C@H]1C=C(C)C)Oc1ccc(O)cc1CC(=O)OC (stereo partly specified) to recorded pIC50 (system: Isocitrate lyase (Candida albicans, UniProt Q9P8Q7))
stdout: 3.97

stdin: Entry C=C1CC[C@H]2C(C)(C)CCC[C@]2(C)[C@H]1C[C@@H](OS(=O)(=O)[O-])[C@H](C)CCC/C(C)=C/Cc1cc(O)ccc1O.[Na+] , system Isocitrate lyase (Candida albicans, UniProt Q9P8Q7): what pIC50 was measured?
stdout: 4.15

stdin: State its pIC50 on Isocitrate lyase (Candida albicans, UniProt Q9P8Q7): CC(C)=CC(CO)/C(C)=C/CC/C(C)=C/CC[C@]1(C)CCc2cc(O)cc(C)c2O1 (stereo partly specified)
stdout: 3.93
